- SUBJECT OF TEST: CDK7/CyclinH/MAT1 (Homo sapiens (Human))
- Sequence (P50613 whole entry): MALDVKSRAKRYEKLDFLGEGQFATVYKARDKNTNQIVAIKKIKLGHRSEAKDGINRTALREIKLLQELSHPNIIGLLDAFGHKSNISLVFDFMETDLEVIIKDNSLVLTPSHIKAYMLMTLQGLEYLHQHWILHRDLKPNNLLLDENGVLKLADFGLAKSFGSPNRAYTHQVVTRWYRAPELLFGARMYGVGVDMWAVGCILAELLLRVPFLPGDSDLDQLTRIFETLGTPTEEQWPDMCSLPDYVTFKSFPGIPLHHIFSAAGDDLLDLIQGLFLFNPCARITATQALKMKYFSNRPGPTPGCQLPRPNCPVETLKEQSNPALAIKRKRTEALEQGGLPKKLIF
- Sequence (P51946 whole entry partner): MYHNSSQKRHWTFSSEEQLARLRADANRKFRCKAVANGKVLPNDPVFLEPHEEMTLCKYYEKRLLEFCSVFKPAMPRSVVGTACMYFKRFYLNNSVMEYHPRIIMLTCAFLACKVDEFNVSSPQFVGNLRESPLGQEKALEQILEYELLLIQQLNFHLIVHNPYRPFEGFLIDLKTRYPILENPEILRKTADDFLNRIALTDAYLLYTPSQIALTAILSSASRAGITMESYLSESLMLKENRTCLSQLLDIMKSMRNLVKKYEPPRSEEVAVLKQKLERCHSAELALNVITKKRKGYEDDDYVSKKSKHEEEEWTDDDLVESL
- Sequence (P51948 whole entry partner): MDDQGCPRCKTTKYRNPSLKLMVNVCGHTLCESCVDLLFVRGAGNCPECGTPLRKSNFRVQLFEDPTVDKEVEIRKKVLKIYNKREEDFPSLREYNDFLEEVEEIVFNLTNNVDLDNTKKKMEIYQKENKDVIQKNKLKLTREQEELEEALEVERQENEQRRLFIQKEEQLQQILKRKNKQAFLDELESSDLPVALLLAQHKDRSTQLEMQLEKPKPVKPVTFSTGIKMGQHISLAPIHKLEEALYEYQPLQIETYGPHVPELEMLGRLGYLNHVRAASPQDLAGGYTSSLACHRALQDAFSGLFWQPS
- ASSAY REMARKS: CDK7/CyclinH/MAT1 kinase inhibitory activity (Caliper mobility shift)
IC50 values for the compounds below.
MEASUREMENT TYPE: IC50

> print(dat)
                                    compound  recorded.value
 1  CC1(O)CCCC1Oc1nc(NC2CCN(S(=O)(=O)C(F)(F)F)CC2)ncc1C#N (single isomer, unassigned) [Example 42b]       ≥ 1000 nM
 2  [2H]C([2H])([2H])NS(=O)(=O)c1ccc(Nc2ncc(CC)c(OC3CCOCC3O)n2)cc1 (single isomer, unassigned) [Example 151a]  100 to 1000 nM
 3  CS(=O)(=O)N1CCC(Nc2ncc(C(F)(F)F)c(OC3CCCCC3)n2)CC1  100 to 1000 nM
 4  CC1(O)CC(F)(F)CCC1Oc1nc(NC2CCN(S(C)(=O)=O)CC2)ncc1C#N (single isomer, unassigned) [Example 47a]    10 to 100 nM
 5  C[C@]1(O)CC(F)(F)C[C@H]1Oc1nc(NC2CCN(S(C)(=O)=O)CC2)ncc1C#N (relative stereo)    10 to 100 nM
 6  NS(=O)(=O)c1ccc(Nc2ncc(Br)c(OC3CCCC3O)n2)cc1 (single isomer, unassigned) [Example 141a]  100 to 1000 nM
 7  NS(=O)(=O)c1ccc(Nc2ncc(C(F)(F)F)c(OC3COCCC3O)n2)cc1 (single isomer, unassigned) [Example 115a]    10 to 100 nM
 8  Cn1cc(S(=O)(=O)N2CCC(Nc3ncc(C(F)(F)F)c(OC4CCOCC4(C)O)n3)CC2)cn1 (single isomer, unassigned) [Example 125a]         < 10 nM
 9  O=S(=O)(NC1CC1)c1ccc(Nc2ncc(C(F)(F)F)c(OC3CCCC3O)n2)cc1 (single isomer, unassigned) [Example 107a]  100 to 1000 nM
10  [2H]C([2H])([2H])NS(=O)(=O)c1ccc(Nc2ncc(C(F)(F)F)c(O[C@H]3CCCOC[C@H]3O)n2)cc1 (single isomer, unassigned) [Example 103a]  100 to 1000 nM
11  CNS(=O)(=O)c1ccc(Nc2ncc(C#N)c(N3CCCCC3)n2)cc1       ≥ 1000 nM
12  CC1(NS(=O)(=O)c2ccc(Nc3ncc(Br)c(O[C@@H]4CCC[C@@H]4O)n3)cc2)COC1 (single isomer, unassigned) [Example 131a]  100 to 1000 nM
13  Cn1cc(S(=O)(=O)N2CCC(Nc3ncc(C#N)c(OCC4(C)CC(F)(F)C4)n3)CC2)cn1  100 to 1000 nM

The reported numbers originate from patent US20240166635A1.
